# STUDY_TARGET: human JAK3 kinase domain (JH1) (Homo sapiens, UniProt P52333)
# Construct: recombinantly generated catalytic kinase (also known as JH1) domain of human JAK1, JAK2, JAK3 and TYK2
# Sequence (P52333 822-1111 limits assumed): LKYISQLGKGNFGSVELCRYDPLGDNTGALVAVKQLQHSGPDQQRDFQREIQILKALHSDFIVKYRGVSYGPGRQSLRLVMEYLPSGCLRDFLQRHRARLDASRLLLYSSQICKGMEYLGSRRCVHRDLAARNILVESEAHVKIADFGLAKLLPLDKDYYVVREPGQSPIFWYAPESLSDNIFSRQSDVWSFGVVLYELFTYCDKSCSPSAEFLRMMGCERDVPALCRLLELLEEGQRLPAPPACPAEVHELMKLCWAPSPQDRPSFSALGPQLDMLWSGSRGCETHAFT
# ASSAY_INFO: JH1 biochemical assay for JAK3 (ADP-Glo kinase assay, recombinant JH1 catalytic domain, JAK3-974 peptide, 4 μM ATP)
# MEASUREMENT_CONDITIONS: JH1 kinase domain, ADP-Glo
pIC50: −log10 of the molar value. Where a name gives a salt, the structure may show the parent alone.

- MOLECULE: "C[C@@H]1C[C@](C#N)(C2CC2)C(=O)N1c1ccnn2cc(-c3cnn(C)c3)cc12 [Example 16]"
  pIC50: "< 5.00"
- MOLECULE: "C[C@@H]1CN(c2ccnn3cc(-c4ccc(F)nc4)cc23)C(=O)[C@]1(C#N)C1CC1 [Example 81]"
  pIC50: "6.00 to 7.00"
- MOLECULE: "C[C@@H]1CN(c2ccnn3cc(-c4ccc(CC#N)cn4)cc23)C(=O)[C@]1(C#N)C1CC1 [Example 127, trifluoroacetate]"
  pIC50: "6.00 to 7.00"
- MOLECULE: "C[C@@H]1CN(c2ccnn3cc(-c4cn[nH]c4)cc23)C(=O)[C@]1(C#N)C1CC1 [Example 59, trifluoroacetate]"
  pIC50: "6.00 to 7.00"
- MOLECULE: "C[C@@H]1CN(c2ccnn3cc(-c4nccn5ccnc45)cc23)C(=O)[C@]1(C#N)C1CC1 [Example 123, trifluoroacetate]"
  pIC50: "< 5.00"
- MOLECULE: "C[C@@H]1CN(c2ccnn3cc(-c4cnc5[nH]ccc5c4)cc23)C(=O)[C@]1(C#N)C1CC1 [Example 64]"
  pIC50: "6.00 to 7.00"
- MOLECULE: "C[C@@H]1CN(c2ccnn3cc(-c4cnc(C(F)F)s4)cc23)C(=O)[C@]1(C#N)C1CC1 [Example 101, trifluoroacetate]"
  pIC50: "6.00 to 7.00"
- MOLECULE: "Cc1nn(C)cc1-c1cn2nccc2c(N2C[C@@H](C)[C@@](C#N)(C3CC3)C2=O)n1 [Example 208]"
  pIC50: "> 7.00"
- MOLECULE: "C[C@@H]1CN(c2ccnn3cc(-c4ncc(C#N)s4)cc23)C(=O)[C@]1(C#N)C1CC1 [Example 117, trifluoroacetate]"
  pIC50: "5.30 to 6.00"
- MOLECULE: "C[C@@H]1CN(c2ccnn3cc(-c4ncccn4)cc23)C(=O)[C@]1(C#N)C1CC1 [Example 139]"
  pIC50: "5.30 to 6.00"
- MOLECULE: "C[C@@H]1CN(c2ccnn3cc(-c4nc5ccccn5n4)cc23)C(=O)[C@]1(C#N)C1CC1 [Example 108, trifluoroacetate]"
  pIC50: "5.30 to 6.00"
- MOLECULE: "C[C@@H]1CN(c2ccnn3cc(-c4cccc(CC#N)n4)cc23)C(=O)[C@]1(C#N)C1CC1 [Example 125, trifluoroacetate]"
  pIC50: "6.00 to 7.00"
- MOLECULE: "C[C@@H]1CN(c2ccnc3[nH]c(-c4cnn(C)c4)cc23)C(=O)[C@]1(C#N)C1CC1 [Example 1]"
  pIC50: "> 7.00"
- MOLECULE: "CC[C@H]1CN(c2ccnn3cc(-c4cnn(C)c4)cc23)C(=O)[C@]1(C#N)C1CC1 [Example 24]"
  pIC50: "< 5.00"
- MOLECULE: "C[C@@H]1CN(c2ccnn3cc(-c4cnn(C5CCOC5)c4)cc23)C(=O)[C@]1(C#N)C1CC1 (stereo partly shown) [Example 162]"
  pIC50: "> 7.00"
- MOLECULE: "COc1cc(-c2cc3c(N4CC[C@](C#N)(C5CC5)C4=O)ccnn3c2)ccn1 [Example 13]"
  pIC50: "< 5.00"
- MOLECULE: "C[C@@H]1CN(c2ccnn3cc(-c4cccc5c4cnn5C)cc23)C(=O)[C@]1(C#N)C1CC1 [Example 54]"
  pIC50: "6.00 to 7.00"
- MOLECULE: "C[C@@H]1CN(c2ccnn3cc(-c4cnn([C@@H]5CC5(F)F)c4)cc23)C(=O)[C@]1(C#N)C1CC1 (single isomer, unassigned) [Example 155]"
  pIC50: "6.00 to 7.00"
- MOLECULE: "Cn1cc(-c2cc3c(N4CC[C@@](C#N)(C5CC5)C4=O)ccnn3c2)c(F)n1 [Example 12]"
  pIC50: "6.00 to 7.00"
- MOLECULE: "C[C@@H]1CN(c2ccnn3cc(-c4cc5ccccn5n4)cc23)C(=O)[C@]1(C#N)C1CC1 [Example 104, trifluoroacetate]"
  pIC50: "6.00 to 7.00"
- MOLECULE: "C[C@@H]1CN(c2ccnn3cc(-c4cnn(C5CC5(F)F)c4)cc23)C(=O)[C@]1(C#N)C1CC1 (mixture of isomers) [Example 154]"
  pIC50: "6.00 to 7.00"
- MOLECULE: "C[C@@H]1CN(c2ccnn3cc(-c4ccc(N(C)C)nc4)cc23)C(=O)[C@]1(C#N)C1CC1 [Example 62]"
  pIC50: "6.00 to 7.00"
- MOLECULE: "C[C@@H]1CN(c2ccnn3cc(-c4cncc(OC(F)F)c4)cc23)C(=O)[C@]1(C#N)C1CC1 [Example 177]"
  pIC50: "5.30 to 6.00"
- MOLECULE: "Cc1cc(-c2cc3c(N4C[C@@H](C)[C@@](C#N)(C5CC5)C4=O)ccnn3c2)ncc1F [Example 142, trifluoroacetate]"
  pIC50: "5.30 to 6.00"
- MOLECULE: "C[C@@H]1CN(c2ccnn3cc(-c4cnn(C(F)F)c4)cc23)C(=O)[C@]1(C#N)C1CC1 [Example 35]"
  pIC50: "6.00 to 7.00"
- MOLECULE: "COc1cc(-c2cc3c(N4C[C@@H](C)[C@@](C#N)(C5CC5)C4=O)ccnn3c2)c(F)cn1 [Example 94]"
  pIC50: "< 5.00"
- MOLECULE: "COC[C@@]1(C#N)CCN(c2ccnn3cc(-c4cnn(C)c4)cc23)C1=O (single isomer, unassigned) [Example 40]"
  pIC50: "6.00 to 7.00"
- MOLECULE: "Cc1nn(C)c(C)c1-c1cn2nccc2c(N2C[C@@H](C)[C@@](C#N)(C3CC3)C2=O)n1 [Example 200]"
  pIC50: "6.00 to 7.00"
